Every entry's value here was drawn from paper doi:10.1101/2023.02.27.530254.

Molecular target: hCB1 (Homo sapiens, UniProt P21554)
Sequence (P21554 whole entry): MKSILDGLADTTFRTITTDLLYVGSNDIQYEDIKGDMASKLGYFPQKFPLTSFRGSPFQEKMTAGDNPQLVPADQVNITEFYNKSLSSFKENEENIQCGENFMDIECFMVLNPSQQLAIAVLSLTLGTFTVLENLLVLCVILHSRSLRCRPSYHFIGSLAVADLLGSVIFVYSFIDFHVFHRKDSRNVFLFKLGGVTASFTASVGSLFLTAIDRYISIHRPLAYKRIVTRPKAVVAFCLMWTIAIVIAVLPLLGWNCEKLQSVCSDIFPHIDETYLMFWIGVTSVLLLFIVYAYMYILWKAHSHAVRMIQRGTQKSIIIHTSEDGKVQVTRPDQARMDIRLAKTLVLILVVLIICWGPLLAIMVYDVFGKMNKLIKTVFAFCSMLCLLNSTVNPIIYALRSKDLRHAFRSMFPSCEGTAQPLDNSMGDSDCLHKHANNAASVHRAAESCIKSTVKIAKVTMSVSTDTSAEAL
Assay: bioSens-All ebBRET effector biosensor signaling profiling, HEK293
Type: cell-based
Design: host or cells: HEK293 (HEK293SL clone), transient
Settings: HEK293, read-out: hCB1 GoB Emax [95% CI]
recorded metric: Emax (%)
Field: numeric (%). Do not append units.

I'd like to know its Emax. The compound in question is Cc1c(C(=O)OCC2CSc3ccccc3O2)cnn1Cc1ccccc1 (stereo not drawn)
21

I'd like to know its Emax. The compound in question is COC(=O)C(C)(NC(=O)c1cc(C)n(-c2cccc(C(F)(F)F)c2)n1)c1cccs1 (stereo not drawn)
103

I'd like to know its Emax. The compound in question is CC(=O)C(c1cccs1)N(C)C(=O)c1cc(C)n(-c2cccc(C(F)(F)F)c2)n1 (stereo not drawn)
49

I'd like to know its Emax. The compound in question is Cn1nc(-c2nnc(C(C)(C)Oc3ccc(Cl)cc3)o2)c2ccccc2c1=O
36

I'd like to know its Emax. The compound in question is Cc1cc(C(=O)NC(c2ccco2)c2ccco2)nn1-c1cccc(C(F)(F)F)c1
90

I'd like to know its Emax. The compound in question is Cn1nc(-c2nnc(C(C)(C)Oc3ccc(C(F)(F)F)cc3)o2)c2ccccc2c1=O
109

I'd like to know its Emax. The compound in question is Cc1cc(C(=O)NC(c2ccccc2)c2ccco2)nn1-c1cccc(C#N)c1 (stereo not drawn)
25

I'd like to know its Emax. The compound in question is COC(=O)[C@@H]1[C@@H]2CCC[C@@H]2CN1C(=O)c1cc(C)n(-c2cccc(C(F)(F)F)c2)n1
100

I'd like to know its Emax. The compound in question is Cc1cc(C(=O)N2CC3(CCC3)[C@H]2[C@H]2CCCO2)nn1-c1cccc(C(F)(F)F)c1 [‘3737b]
152

====

Target: hCB2 (Homo sapiens)
Sequence (P34972 whole entry): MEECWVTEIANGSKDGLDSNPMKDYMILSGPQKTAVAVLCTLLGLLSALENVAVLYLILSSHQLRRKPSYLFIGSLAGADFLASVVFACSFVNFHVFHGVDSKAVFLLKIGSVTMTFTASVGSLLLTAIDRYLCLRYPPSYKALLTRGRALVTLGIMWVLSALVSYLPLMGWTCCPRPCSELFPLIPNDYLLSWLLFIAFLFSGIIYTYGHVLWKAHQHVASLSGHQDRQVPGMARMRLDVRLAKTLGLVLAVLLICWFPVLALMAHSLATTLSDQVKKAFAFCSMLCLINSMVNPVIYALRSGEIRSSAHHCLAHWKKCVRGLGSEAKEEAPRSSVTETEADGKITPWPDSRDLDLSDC
Assay: bioSens-All ebBRET effector biosensor signaling profiling, HEK293
Assay type: cell-based
Set-up: host or cells: HEK293 (HEK293SL clone), transient
Conditions: hCB2 Gi2 pEC50 [95% CI]
recorded metric: EC50 (nM)
Field: numeric (nM). Do not append units.

I'd like to know its EC50. The compound in question is COC(=O)[C@@](C)(NC(=O)c1cc(C)n(-c2cccc(C(F)(F)F)c2)n1)c1cccs1
1.62

I'd like to know its EC50. The compound in question is COC(=O)C(C)(NC(=O)c1cc(C)n(-c2cccc(C(F)(F)F)c2)n1)c1cccs1 (centres unmarked)
1.26

====

Kindly state pEC50 for each of the entries shown.
Target: hCB1 (Homo sapiens)
Assay: bioSens-All ebBRET effector biosensor signaling profiling, HEK293
Format: cell-based
Parameters: host or cells: HEK293 (HEK293SL clone), transient
Conditions: hCB1 G13 EC50 [95% CI], G13 sensor
Note: pEC50 values are expressed as the negative base-10 logarithm of concentration in M.

I'd like to know its pEC50. The compound in question is COC(=O)C(C)(NC(=O)c1cc(C)n(-c2cccc(C(F)(F)F)c2)n1)c1cccs1 (centres unmarked) [‘4042]
8.68

I'd like to know its pEC50. The compound in question is COC(=O)[C@@](C)(NC(=O)c1cc(C)n(-c2cccc(C(F)(F)F)c2)n1)c1cccs1 [‘1350]
9.08

====

Biological target: hCB1 (Homo sapiens)
Assay: bioSens-All ebBRET effector biosensor signaling profiling, HEK293
Format: cell-based
Parameters: host or cells: HEK293 (HEK293SL clone), transient
Conditions: hCB1 Gi1 EC50 [95% CI]
Kindly state pEC50 for each of the entries shown.
Note: pEC50 values are expressed as the negative base-10 logarithm of concentration in M.

I'd like to know its pEC50. The molecule in question is Cc1cc(C(=O)N2CC3(CCC3)[C@H]2[C@@H]2CCCO2)nn1-c1cccc(C(F)(F)F)c1 [‘3737a]
5.55

I'd like to know its pEC50. The molecule in question is Cn1nc(-c2nnc(C(C)(C)Oc3ccc(C(F)(F)F)cc3)o2)c2ccccc2c1=O
6.00

I'd like to know its pEC50. The molecule in question is Cc1cc(C(=O)N2CC3(CCC3)[C@H]2[C@H]2CCCO2)nn1-c1cccc(C(F)(F)F)c1 [‘3737b]
5.52

I'd like to know its pEC50. The molecule in question is Cc1nn(Cc2ccc(Cl)cc2)c(C)c1C(=O)OCC1CSc2ccccc2O1 (stereo not drawn)
5.31

I'd like to know its pEC50. The molecule in question is Cc1c(C(=O)OCC2CSc3ccccc3O2)cnn1Cc1ccccc1 (stereo not drawn)
5.17

I'd like to know its pEC50. The molecule in question is CC(=O)C(c1cccs1)N(C)C(=O)c1cc(C)n(-c2cccc(C(F)(F)F)c2)n1 (stereo not drawn)
5.39

I'd like to know its pEC50. The molecule in question is COC(=O)[C@@H]1[C@@H]2CCC[C@@H]2CN1C(=O)c1cc(C)n(-c2cccc(Cl)c2)n1
6.09

I'd like to know its pEC50. The molecule in question is Cc1cc(C(=O)NC(c2ccccc2)c2ccco2)nn1-c1cccc(C(F)(F)F)c1 (stereo not drawn)
6.82

I'd like to know its pEC50. The molecule in question is Cn1nc(-c2nnc(C(C)(C)Oc3ccc(Cl)cc3)o2)c2ccccc2c1=O
4.25

====

Target: CB1 (Rattus norvegicus, UniProt P20272)
Construct: membrane preparations from rat brain (source of CB1); tissue Bioivt RAT00BRAINMZN; host or cells: rat brain
Sequence (P20272 whole entry): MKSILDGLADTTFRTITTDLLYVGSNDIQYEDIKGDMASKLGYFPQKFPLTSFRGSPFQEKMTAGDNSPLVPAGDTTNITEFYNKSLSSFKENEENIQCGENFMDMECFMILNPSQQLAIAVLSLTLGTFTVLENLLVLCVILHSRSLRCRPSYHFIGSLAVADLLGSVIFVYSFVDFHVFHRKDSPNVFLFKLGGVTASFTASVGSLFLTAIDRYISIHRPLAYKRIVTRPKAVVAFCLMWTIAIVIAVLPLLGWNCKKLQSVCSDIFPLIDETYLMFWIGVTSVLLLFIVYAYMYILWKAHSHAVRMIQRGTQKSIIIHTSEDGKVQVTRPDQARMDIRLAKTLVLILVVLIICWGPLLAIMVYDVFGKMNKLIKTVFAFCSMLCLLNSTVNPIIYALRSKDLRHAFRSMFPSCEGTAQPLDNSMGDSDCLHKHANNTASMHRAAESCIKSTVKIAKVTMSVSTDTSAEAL
Assay: Radioligand competition binding with [3H]-CP-55,940, rat brain membranes
Settings: rCB1 binding Ki [95% CI], [3H]-CP-55,940 competition, rat brain membranes
recorded metric: pKi
Note: pKi values are expressed as the negative base-10 logarithm of concentration in M.

I'd like to know its pKi. The compound in question is Cc1cc(C(=O)N(C)C(c2ccccc2)c2ccco2)nn1-c1cccc(C(F)(F)F)c1 (stereo not shown) [‘1082]
6.07

I'd like to know its pKi. The compound in question is CC(=O)C(C)(NC(=O)c1cc(C)n(-c2cccc(C(F)(F)F)c2)n1)c1cccs1 (stereo not shown) [‘4156]
7.87

I'd like to know its pKi. The compound in question is COC(=O)[C@@H]1[C@@H]2CCC[C@@H]2CN1C(=O)c1cc(C)n(-c2cccc(C(F)(F)F)c2)n1 [‘6439]
6.60

I'd like to know its pKi. The compound in question is COC(=O)[C@@](C)(NC(=O)c1cc(C)n(-c2cccc(C(F)(F)F)c2)n1)c1cccs1 [‘1350]
9.02

I'd like to know its pKi. The compound in question is Cc1cc(C(=O)N2CC3(CCC3)C2C2CCCO2)nn1-c1cccc(C(F)(F)F)c1 (stereo not shown) [‘3737]
6.76

I'd like to know its pKi. The compound in question is COC(=O)C(NC(=O)c1cc(-c2ccccc2)n(-c2cccc(C(F)(F)F)c2)n1)c1cccs1 (stereo not shown) [‘8079]
7.73

I'd like to know its pKi. The compound in question is COC(=O)[C@H](c1cccs1)N(C)C(=O)c1cc(C)n(-c2cccc(C(F)(F)F)c2)n1 [‘1066]
5.76

====

Kindly state Emax for each of the entries shown.
Molecular target: hCB1 (Homo sapiens)
Test: bioSens-All ebBRET effector biosensor signaling profiling, HEK293
Type: cell-based
Parameters: host or cells: HEK293 (HEK293SL clone), transient
Settings: HEK293, read-out: hCB1 Gi1 Emax [95% CI]
Field: numeric (%). Do not append units.

I'd like to know its Emax. The compound in question is Cn1nc(-c2nnc(C(C)(C)Oc3ccc(C(F)(F)F)cc3)o2)c2ccccc2c1=O
89

I'd like to know its Emax. The compound in question is COC(=O)C(NC(=O)c1cc(C)n(-c2cccc(C(F)(F)F)c2)n1)c1cccs1 (centres unmarked)
92

I'd like to know its Emax. The compound in question is COC(=O)[C@@](C)(NC(=O)c1cc(C)n(-c2cccc(C(F)(F)F)c2)n1)c1cccs1
92

I'd like to know its Emax. The compound in question is CC(=O)C(c1cccs1)N(C)C(=O)c1cc(C)n(-c2cccc(C(F)(F)F)c2)n1 (centres unmarked)
68

I'd like to know its Emax. The compound in question is Cc1cc(C(=O)N2CC3(CCC3)[C@H]2[C@H]2CCCO2)nn1-c1cccc(C(F)(F)F)c1 [‘3737b]
89

====

Molecular target: hCB1 (Homo sapiens, UniProt P21554)
Experiment: Tango β-arrestin-2 recruitment assay, HTLA cells
Type: cell-based
Parameters: expressed in transfected cells
Method: The Tango β-arrestin-2 recruitment assays were performed as described. […] The plates were further incubated for 20 min at room temperature and counted using the Wallac TriLux Microbeta counter (PerkinElmer). The results were analysed using GraphPad Prism 9.1. Each experiment was performed in triplicate and functional […] values were determined from the mean of three independent experiments.
recorded metric: EC50

Return EC50 measured with hCB1 (Homo sapiens, UniProt P21554) given this molecule: COC(=O)[C@@H]1[C@@H]2CCC[C@@H]2CN1C(=O)c1cc(C)n(-c2cccc(C(F)(F)F)c2)n1
> 10 µM

Return EC50 measured with hCB1 (Homo sapiens, UniProt P21554) given this molecule: COC(=O)[C@@H]1[C@@H]2CCC[C@@H]2CN1C(=O)c1cc(C)n(-c2cccc(Cl)c2)n1
> 10 µM

Return EC50 measured with hCB1 (Homo sapiens, UniProt P21554) given this molecule: Cc1cc(C(=O)N2CC3(CCC3)C2C2CCCO2)nn1-c1cccc(C(F)(F)F)c1 (stereo not drawn)
> 10 µM
